- System: MALME-3M melanoma
- MEASUREMENT_NOTES: NCI tumour cell line growth inhibition, 48 h; in the data active = GI50 below about 0.43 µM; inactive = the rest
Pick one and only one: true for active, false for inactive

Record excerpt, results attached:
CCCCCCCCCCCCCCCC(=O)N[C@H]1CCc2cc(OC)c(OC)c(OC)c2-c2ccc(SC)c(=O)cc21    true
C[C@H](NC(=O)CCC(F)(F)F)C(=O)N[C@@H]1C(=O)N(CCO)c2ncccc2-c2ccccc21    false

--- query ---
Lab log entry: `O=C(Nc1ccccc1)Nc1ccccc1CNc1nc(Nc2ccc(OCCN3CCCC3)cc2)ncc1Cl` — outcome as called in the assay?
false

====

Measured TGI, listed per entry.
- Test system: UACC-62 melanoma
- MEASUREMENT_NOTES: NCI tumour cell line growth inhibition, 48 h
Your answer should be a plain number; it is taken to be in µM.

Some compounds with recorded TGI:
CCCCCCCCCCCCNC(=O)[C@H]1CSC(c2ccc(OC)c(F)c2)N1 (stereo partly specified)    2.83
C=CC(C)(C)n1cc(C2=C(O)C(=O)C(c3cn(C(C)(C)C=C)c4ccccc34)=C(OC(C)=O)C2=O)c2ccccc21    2.18

Provide the documented TGI with UACC-62 melanoma as the system for COC1C(CO)OC(n2c3ccccc3c3c4c(c5c6ccccc6[nH]c5c32)C(=O)NC4=O)C(O)C1OC(=O)C(N)CCCCN (stereo unspecified)
1.3

Provide the documented TGI with UACC-62 melanoma as the system for COc1cc(C2c3cc4c(cc3[C@@H](Nc3cccc(O)c3)C3COC(=O)[C@H]23)OCO4)cc(OC)c1O (stereo partly specified)
7.08
